Entry source: PubChem BioAssay AID1159580

# assay-info: chemical genetic growth profiling, strain panel (AID 1159580);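 further: tested at 20 µM; growth read once vehicle control cultures reached saturation at 30 °C; 1 = growth at the plate median or of vehicle wells; lower values mean less growth of the strain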
# experimental-context: S. cerevisiae deletion strains, growth OD, locus YMR205C, strain PFK2 (second series), active compounds read low
Out of some 5,500 compounds screened, about 2,000 (36%) were called active. About 18% were inconclusive and are not listed. The list shows a part of the results.
Recorded normalized growth by entry
value-type: normalized growth

• c1ccc(-c2nnc(-c3ccccn3)nc2-c2ccccc2)cc1 = 0.734
• Oc1c(Br)cc(Br)cc1C=Nc1ccccn1 = 0.211
• Cc1c(C)c(C)c(C(O)c2ccccc2)c(C)c1C (stereo not given) = 0.849
• Oc1c(Br)cc(Br)cc1/C=N\n1cnnc1 = 0.355
• O=C(Nc1ccccc1)Nc1ccc(Cl)cc1[N+](=O)[O-] = 0.941

----------
# assay-info: chemical genetic growth profiling, strain panel (AID 1159580);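 further: tested at 20 µM; growth read once vehicle control cultures reached saturation at 30 °C; 1 = growth at the plate median or of vehicle wells; lower values mean less growth of the strain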
# experimental-context: S. cerevisiae deletion strains, growth OD, locus YOR069W, strain VPS5, active compounds read low
The campaign covered roughly 5,500 compounds. About 2,000 (36%) were called active. Inconclusive results (about 18%) are left out. Some of the results follow.
value-type: normalized growth

- COc1ccc(-c2cc(=O)c3c(O)cc(O[C@H]4O[C@H](CO[C@@H]5O[C@@H](C)[C@H](O)[C@@H](O)[C@H]5O)[C@@H](O)[C@H](O)[C@H]4O)cc3o2)cc1: 1.01
- COc1cc(O)c2c(=O)c(O)c(-c3ccc(O)c(O)c3)oc2c1: 0.966
- O=c1c(O)c(-c2cc(O)c(O)c(O)c2)oc2cc(O)cc(O)c12: 1.01
- C[C@@H]1O[C@@H](OC[C@H]2OC(Oc3c(-c4ccc(OCCO)c(OCCO)c4)oc4cc(OCCO)cc(O)c4c3=O)[C@H](O)[C@@H](O)[C@@H]2O)[C@H](O)[C@H](O)[C@H]1O (some centres not stated): 0.994
- COc1ccc(-c2oc3c(CC=C(C)C)c(O[C@@H]4O[C@H](CO)[C@@H](O)[C@H](O)[C@H]4O)cc(O)c3c(=O)c2O[C@@H]2O[C@@H](C)[C@H](O)[C@@H](O)[C@H]2O)cc1: 0.999
- CC12CCC3c4ccc(OC(=O)c5ccccc5)cc4CCC3C1CCC2O (configuration not stated): 1.01
- COc1cc(OC)c2c(=O)c(OC)c(-c3ccc(OC)c(OC)c3)oc2c1: 1.01

----------
# assay-info: chemical genetic growth profiling, strain panel (AID 1159580);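 further: tested at 20 µM; growth read once vehicle control cultures reached saturation at 30 °C; 1 = growth at the plate median or of vehicle wells; lower values mean less growth of the strain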
# experimental-context: S. cerevisiae deletion strains, growth OD, locus YDL040C, strain nat1, active compounds read low
Out of some 5,500 compounds screened, about 2,000 (36%) were called active. Inconclusive results (about 18%) are left out. Some of the results follow. Where a SMILES comes first, the peptide text is derived from it.
value-type: normalized growth

* CCCCC1C(=O)N(c2ccccc2)N(c2ccc(O)cc2)C1=O (centres undefined) | 0.997
* C[C@@H]1CC[C@@]2(NC1)O[C@H]1C[C@H]3C4CC=C5C[C@@H](O)CC[C@]5(C)C4CC[C@]3(C)C1[C@@H]2C (some centres undefined) | 0.495
* CC1(C)C2CC(=O)[C@]3(C)C(CC[C@@]4(C)[C@H](c5ccoc5)OC(=O)C5OC543)[C@@]2(C)[C@@H](O)C[C@H]1O (some centres undefined) | 1
* OCC(O)C(O)C(O)C(O)C(O)CO (centres undefined) | 0.982
* CNC(=O)Oc1cccc2c1OC(C)(C)O2 | 1
* CC1(C)C(=O)C=C[C@@]2(C)C1C=C[C@]1(C)C2CC[C@@]2(C)[C@H](c3ccoc3)OC(=O)C3OC321 (some centres undefined) | 1
* CC(C)c1c(O)ccc2c1CCC1C(C)(C)CCC[C@]21C (some centres undefined) | 0.749
* CC1(C)C2CC(=O)[C@]3(C)C(CC[C@@]4(C)[C@H](c5ccoc5)OC(=O)[C@H]5O[C@]543)[C@@]2(C)C(=O)C[C@H]1O (some centres undefined) | 1
* C[C@H]1O[C@H](OC2[C@@H](O)[C@@H](O)C(O)[C@H](O)[C@H]2O)[C@@H](N)C[C@@H]1N=C(N)C(=O)O (some centres undefined) | 0.992
* CC(C1OC(C)(C)C(O)C1O)[C@@H]1CC[C@]2(C)C3=CCC4C(C)(C)C(=O)CC[C@]4(C)C3CC[C@@]12C (some centres undefined) | 0.976
* CCC1OC(=O)[C@H](C)C(=O)[C@H](C)[C@@H](OC2O[C@H](C)C[C@H](N(C)C)[C@H]2O)[C@](C)(OC)C2(CCCn3cnc(-c4cccnc4)c3)C[C@@H](C)C(=O)[C@H](C)[C@H]3N(C2)C(=O)O[C@]13C (some centres undefined) | 0.982
* CC1(C)C(=O)C=C[C@@]2(C)C1CC(=O)[C@]1(C)C2CC[C@@]2(C)[C@H](c3ccoc3)OC(=O)[C@H]3O[C@]321 (some centres undefined) | 0.977
* COC(=O)[C@H](Cc1ccccc1)NC(=O)[C@@H](N)CC(=O)O (H-Asp-Phe-OMe) | 1.01
* CCCCCC(=O)Cc1cc(O)cc(O)c1C(=O)Oc1cc(CC(=O)CCCCC)c(C(=O)O)c(OC)c1 | 0.939
* CC(=O)O[C@@H]1CC2C(C)(C)C(=O)C=C[C@]2(C)C2CC[C@@]3(C)[C@H](c4ccoc4)OC(=O)[C@H]4O[C@]43[C@@]21C (some centres undefined) | 0.998
* O=C1[O][Bi][O]c2ccccc21 | 1.03
* CC(CC(O)C1OC1(C)C)[C@@H]1CCC2(C)C3=CCC4C(C)(C)C(=O)CCC4(C)C3CC[C@@]12C (some centres undefined) | 1
* CN(C)c1ccc2nc3ccc(=[N+](C)C)cc-3sc2c1 | 1.05
* C[C@]12CCC3c4ccc(O)cc4CCC3C1CC[C@@H]2O (some centres undefined) | 1.02
* CC(C)c1c(O)c(-c2cc3c(c(C(C)C)c2O)CCC2C(C)(C)CCC[C@]32C)cc2c1CCC1C(C)(C)CCC[C@]21C (some centres undefined) | 0.991
* CC1(C)C=CC(=O)[C@@]2(C)C1CC(=O)[C@]1(C)C2CC[C@@]2(C)[C@H](c3ccoc3)OC(=O)C3OC321 (some centres undefined) | 0.996
* CC1(C)C(=O)C=C[C@@]2(C)C1C[C@@H](O)[C@]1(C)C2CC[C@@]2(C)[C@H](c3ccoc3)OC(=O)[C@H]3O[C@]321 (some centres undefined) | 1
* CC1CC[C@@]2(OC1)O[C@H]1CC3C4CC[C@@H]5C[C@@H](O)CC[C@]5(C)C4CC[C@]3(C)[C@H]1[C@@H]2C (some centres undefined) | 1.02
* CC(C)(C)NCC(O)c1cc(O)cc(O)c1 (centres undefined) | 0.973
* CN[C@@H]1C(O)[C@@H](O[C@@H]2[C@@H](O)[C@H](O[C@H]3OC(CN)=CC[C@H]3N)[C@@H](N)C[C@H]2N)OC[C@]1(C)O (some centres undefined) | 1.01
* CC[n+]1c(-c2ccccc2)c2cc(N)ccc2c2ccc(N)cc21 | 0.969
* CCCCCc1c2c(cc(O)c1C(=O)O)OC(=O)c1c(cc(OC)cc1C(=O)CCCC)O2 | 0.994
* Cc1ccccc1OCC(O)CO (centres undefined) | 0.967
* CC1CC[C@]2(NC1)O[C@H]1CC3C4CC[C@H]5C[C@@H](O)CC[C@]5(C)C4CC[C@]3(C)[C@H]1[C@@H]2C (some centres undefined) | 0.164
* CC(=O)OC(C)C[N+](C)(C)C (centres undefined) | 1
* C[C@@H]1CC[C@@]2(OC1)O[C@H]1CC3C4CC[C@H]5C[C@@H](O)CC[C@]5(C)C4CC[C@]3(C)[C@H]1[C@@H]2C (some centres undefined) | 0.998
* CC(=O)Oc1ccc2c(c1OC(C)=O)OCC1(O)Cc3c(cc(OC(C)=O)c(OC(C)=O)c3OC(C)=O)C21 (centres undefined) | 1.01
* COc1ccccc1/C=C\C(=O)O | 0.994
* CC(=O)[C@@]1(O)CCC2C3C[C@H](C)C4=CC(=O)C=CC4(C)[C@@]3(F)[C@@H](O)C[C@@]21C (some centres undefined) | 0.983
